Hello, the source for this data is patent US20250152729A1, in case you need it.

TARGET OR SYSTEM: T1, human SEMA4A expressed on cells (UniProt ID Q9H3S1, isoform 1) (human, UniProt Q9H3S1 33-761)
T1 sequence: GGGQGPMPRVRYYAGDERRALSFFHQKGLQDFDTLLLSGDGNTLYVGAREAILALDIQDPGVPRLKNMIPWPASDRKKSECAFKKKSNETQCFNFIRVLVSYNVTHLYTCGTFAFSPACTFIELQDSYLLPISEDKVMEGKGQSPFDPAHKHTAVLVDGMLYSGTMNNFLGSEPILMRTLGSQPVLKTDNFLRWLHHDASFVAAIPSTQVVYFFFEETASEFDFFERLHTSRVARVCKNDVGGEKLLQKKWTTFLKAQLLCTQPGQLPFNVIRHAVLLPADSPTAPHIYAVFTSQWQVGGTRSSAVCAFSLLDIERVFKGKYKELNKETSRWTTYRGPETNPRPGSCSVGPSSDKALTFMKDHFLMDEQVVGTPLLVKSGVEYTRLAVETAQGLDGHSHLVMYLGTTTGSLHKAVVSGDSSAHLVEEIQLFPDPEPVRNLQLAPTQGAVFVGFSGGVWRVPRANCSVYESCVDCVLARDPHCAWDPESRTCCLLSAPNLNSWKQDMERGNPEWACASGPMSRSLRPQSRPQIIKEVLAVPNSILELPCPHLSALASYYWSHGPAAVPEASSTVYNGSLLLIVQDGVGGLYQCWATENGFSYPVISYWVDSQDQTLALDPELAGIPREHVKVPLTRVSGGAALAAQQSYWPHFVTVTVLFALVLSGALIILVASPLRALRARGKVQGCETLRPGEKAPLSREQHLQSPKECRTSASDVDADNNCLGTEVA
ASSAY PROCEDURE: cell-based or functional assay
READOUT: Max % Cell Kill, Fab-ZAP, NCI-H929 (%)
Express the result in % but write the number alone.

In the examples that follow, each entry is paired with its recorded Max % Cell Kill, Fab-ZAP, NCI-H929.
1. 5Hg2-5Lg3 human Alya IgG1 (antibody, V domains shown, Humanised 5E3; human IgG1 Alya constant (239iCys, S442C, EU), lambda light chain; purified, unconjugated) VH: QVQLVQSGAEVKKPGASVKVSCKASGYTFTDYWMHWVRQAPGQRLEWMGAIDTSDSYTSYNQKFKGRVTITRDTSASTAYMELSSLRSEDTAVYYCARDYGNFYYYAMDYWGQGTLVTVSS VL: QTVVTQEPSFSVSPGGTVTLTCRSSTGAVTTSNYANWYQQTPGQAPRTLIYGTNNRAPGVPDRFSGSILGNKAALTITGAQADDESDYYCALWYSNHWVFGGGTKLTVL    58
2. 5Hg1-5Lg1 human Alya IgG1 (antibody, V domains shown, Humanised 5E3; human IgG1 Alya constant (239iCys, S442C, EU), lambda light chain; purified, unconjugated) VH: QVQLVQSGAEVKKPGASVKVSCKASGYTFTDYWMHWVRQAPGQGLEWMGAIDTSDSYTSYNQKFKGRVTMTRDTSTSTVYMELSSLRSEDTAVYYCARDYGNFYYYAMDYWGQGTLVTVSS VL: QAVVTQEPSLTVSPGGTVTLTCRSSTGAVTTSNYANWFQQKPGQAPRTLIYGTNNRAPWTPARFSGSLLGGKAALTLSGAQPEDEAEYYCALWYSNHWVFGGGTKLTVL    76

INPUT: For the binder 5Hg4-5Lg2 human Alya IgG1 (antibody, V domains shown, Humanised 5E3; human IgG1 Alya constant (239iCys, S442C, EU), lambda light chain; purified, unconjugated) VH: QVQLVQSGSELKKPGASVKVSCKASGYTFTDYWMHWVRQAPGQGLEWMGAIDTSDSYTSYNQKFKGRFVFSLDTSVSTAYLQICSLKAEDTAVYYCARDYGNFYYYAMDYWGQGTLVTVSS VL: QAVVTQEPSLTVSPGGTVTLTCRSSTGAVTTSNYANWFQQKPGQAPRTLIYGTNNRAPWTPARFSGSLLGGKAALTLLGAQPEDEAEYYCALWYSNHWVFGGGTKLTVL , what Max % Cell Kill, Fab-ZAP, NCI-H929 is on record?
OUTPUT: 58
